Target: Human GLP-1R (Homo sapiens, UniProt P43220)
Sequence (P43220 24-463): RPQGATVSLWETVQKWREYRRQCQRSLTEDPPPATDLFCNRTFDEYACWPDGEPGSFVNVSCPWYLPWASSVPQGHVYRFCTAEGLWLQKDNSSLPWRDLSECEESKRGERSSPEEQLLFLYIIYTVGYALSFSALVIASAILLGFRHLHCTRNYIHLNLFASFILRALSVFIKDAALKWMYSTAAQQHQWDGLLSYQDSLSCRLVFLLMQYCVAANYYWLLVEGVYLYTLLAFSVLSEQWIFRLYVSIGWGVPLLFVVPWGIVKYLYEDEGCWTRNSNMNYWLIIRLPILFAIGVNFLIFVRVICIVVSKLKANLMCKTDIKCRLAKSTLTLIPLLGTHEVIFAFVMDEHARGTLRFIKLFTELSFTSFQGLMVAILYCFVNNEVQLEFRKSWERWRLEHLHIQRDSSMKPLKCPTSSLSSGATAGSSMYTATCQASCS
Assay: cAMP level determination in human GLP-1R stably transfected HEK293T cells (HTRF cAMP kit)
Conditions: 37°C 30 min
Procedure: Human GLP-1R HEK293T stably transfected cells were digested with trypsin, terminated with DMEM total (without p/s), centrifuged and washed twice with 1X Stimulation buffer, then resuspended in 1X stimulation buffer and counted. The cells were then prepared as a 1 Million/mL cell suspension in stimulation buffer. […] Stimulation% was calculated based on Min and Max readings (665nm/615nm ratio) using the formula: 100*(ratio Max well - ratio test well)/(ratio Max well - ratio Min well). […]
Listing of recorded EC50 by entry.

{"Molecule": "Cc1cc(-n2nc3c(c2-n2ccn(-c4ccc(N(C)C(=O)C5CC5)cc4Cl)c2=O)[C@H](C)N(C(=O)c2cc4cc([C@H]5CCOC(C)(C)C5)ccc4n2[C@@]2(c4nc(=O)o[nH]4)C[C@@H]2C)CC3)cc(C)c1F", "Result units": "nM", "EC50": 6.19}
{"Molecule": "Cc1cc(-n2nc3c(c2-n2ccn(-c4ccc(C(=O)N(C)C5CC5)nn4)c2=O)[C@H](C)N(C(=O)c2cc4cc(C5CCOC(C)(C)C5)ccc4n2[C@@]2(c4nc(=O)o[nH]4)C[C@@H]2C)CC3)cc(C)c1F (stereo partly shown)", "Result units": "nM", "EC50": 206}
{"Molecule": "C[C@H]1c2c(nn(-c3ccc(F)c(N4CCCC4)c3)c2-n2ccn(-c3ccc4c(cnn4C)c3F)c2=O)CCN1C(=O)c1cc2cc(C3CCOC(C)(C)C3)ccc2n1[C@@]1(c2nc(=O)o[nH]2)C[C@@H]1C (stereo partly shown)", "Result units": "nM", "EC50": 26.5}
{"Molecule": "Cc1cc(-n2nc3c(c2-n2ccn(-c4ccc(C(=O)N(C)C5CC5)cc4C#N)c2=O)[C@H](C)N(C(=O)c2cc4cc(C5CCOC(C)(C)C5)ccc4n2[C@@]2(c4nc(=O)o[nH]4)C[C@@H]2C)CC3)cc(C)c1F (stereo partly shown)", "Result units": "nM", "EC50": 67.8}

====

half-life listing for selected molecules.
Assay: Pharmacokinetic analysis of compounds in mouse plasma after oral gavage or intravenous injection
Type: in vivo, Male C57BL/6J mice
Details: mouse plasma, table dose 5 mg/kg (oral gavage)

{"Molecule": "Cc1cc(-n2nc3c(c2-n2ccn(-c4ccc(C(=O)N(C)C5CC5)c(F)c4F)c2=O)[C@H](C)N(C(=O)c2cc4cc([C@H]5CCOC(C)(C)C5)ccc4n2[C@@]2(c4nc(=O)o[nH]4)C[C@@H]2C)CC3)cc(C)c1F [Compound 5]", "half-life [h]": 3.11}
{"Molecule": "Cc1cc(-n2nc3c(c2-n2ccn(-c4ccc(C(=O)N(C)C5CC5)c(Cl)c4)c2=O)[C@H](C)N(C(=O)c2cc4cc([C@H]5CCOC(C)(C)C5)ccc4n2[C@@]2(c4nc(=O)o[nH]4)C[C@@H]2C)CC3)cc(C)c1F [Compound 11]", "half-life [h]": 4.27}
{"Molecule": "Cc1cc(-n2nc3c(c2-n2ccn(-c4ccc(C(=O)N(C)C5CC5)c(Cl)c4F)c2=O)[C@H](C)N(C(=O)c2cc4cc([C@H]5CCOC(C)(C)C5)ccc4n2[C@@]2(c4nc(=O)o[nH]4)C[C@@H]2C)CC3)cc(C)c1F [Compound 7]", "half-life [h]": 3.41}

====

pEC50 for assorted compounds
Biological target: Human GLP-1R (Homo sapiens)
Assay: cAMP level determination in human GLP-1R stably transfected HEK293T cells (HTRF cAMP kit)
Settings: 37°C 30 min
pEC50: −log10 of the molar value.
Value kind: pEC50

{"Compound": "Cc1cc(-n2nc3c(c2-n2ccn(-c4ccc(C#N)c(F)c4)c2=O)[C@H](C)N(C(=O)c2cc4cc([C@H]5CCOC(C)(C)C5)ccc4n2[C@@]2(c4nc(=O)o[nH]4)C[C@@H]2C)CC3)cc(C)c1F [Compound 82b]", "Value kind": "pEC50", "Recorded number": 8.19}
{"Compound": "Cc1cc(-n2nc3c(c2-n2ccn(-c4ccc(C(=O)NC5CC5)cc4)c2=O)[C@H](C)N(C(=O)c2cc4cc(C5CCOC(C)(C)C5)ccc4n2[C@@]2(c4nc(=O)o[nH]4)C[C@@H]2C)CC3)cc(C)c1F (stereo partly shown) [Compound 46]", "Value kind": "pEC50", "Recorded number": 7.11}
{"Compound": "Cc1cc(-n2nc3c(c2-n2ccn(-c4ccc(N(C)C(=O)C5CC5)c(Cl)c4)c2=O)[C@H](C)N(C(=O)c2cc4cc([C@H]5CCOC(C)(C)C5)ccc4n2[C@@]2(c4noc(=O)[nH]4)C[C@@H]2C)CC3)cc(C)c1F [Compound 70]", "Value kind": "pEC50", "Recorded number": 8.45}
{"Compound": "Cc1cc(-n2nc3c(c2-n2ccn(-c4cc(F)c(C(=O)N(C)C5CC5)cc4F)c2=O)C(C)N(C(=O)c2cc4cc(C5CCOC(C)(C)C5)ccc4n2C2(c4nc(=O)o[nH]4)CC2C)CC3)cc(C)c1F (stereo not shown) [Compound 26]", "Value kind": "pEC50", "Recorded number": 7.94}

====

Target: UniProt P43220
Assay: cAMP level determination in human GLP-1R stably transfected HEK293T cells (HTRF cAMP kit)
Conditions: 37°C 30 min
pEC50: −log10 of the molar value.
pEC50 values, listed per item

{"Molecule": "Cc1cc(-n2nc3c(c2-n2ccn(-c4ccc(C(=O)N5CCCC5)cc4)c2=O)[C@H](C)N(C(=O)c2cc4cc(C5CCOC(C)(C)C5)ccc4n2[C@@]2(c4nc(=O)o[nH]4)C[C@@H]2C)CC3)cc(C)c1F (stereo partly shown)", "pEC50": 7.30}
{"Molecule": "C[C@H]1c2c(nn(-c3ccc(F)c(C4CC4(F)F)c3)c2-n2ccn(-c3ccc4c(cnn4C)c3F)c2=O)CCN1C(=O)c1cc2cc(C3CCOC(C)(C)C3)ccc2n1[C@@]1(c2nc(=O)o[nH]2)C[C@@H]1C (stereo partly shown)", "pEC50": 7.25}
{"Molecule": "Cc1cc(-n2nc3c(c2-n2ccn(-c4ccc(C#N)cc4F)c2=O)[C@H](C)N(C(=O)c2cc4cc(C5CCOC(C)(C)C5)ccc4n2[C@@]2(c4nc(=O)o[nH]4)C[C@@H]2C)CC3)cc(C)c1F (stereo partly shown)", "pEC50": 7.96}
{"Molecule": "Cc1cc(-n2nc3c(c2-n2ccn(-c4ccc(C(=O)N(C)C5(C)CC5)c(C(F)(F)F)c4)c2=O)[C@H](C)N(C(=O)c2cc4cc([C@H]5CCOC(C)(C)C5)ccc4n2[C@@]2(c4nc(=O)o[nH]4)C[C@@H]2C)CC3)cc(C)c1F", "pEC50": 8.14}

====

Each record here notes measured pEC50.
Biological target: UniProtKB P43220
Experiment: cAMP level determination in human GLP-1R stably transfected HEK293T cells (HTRF cAMP kit)
Conditions: 37°C 30 min
pEC50: −log10 of the molar value.

{"Molecule": "Cc1cc(-n2nc3c(c2-n2ccn(-c4ccc(N(C)C(=O)C5CCC5)c(F)c4)c2=O)[C@H](C)N(C(=O)c2cc4cc([C@H]5CCOC(C)(C)C5)ccc4n2[C@@]2(c4nc(=O)o[nH]4)C[C@@H]2C)CC3)cc(C)c1F", "pEC50": 8.01}
{"Molecule": "Cc1cc(-n2nc3c(c2-n2ccn(-c4ccc(C(=O)N(C)C5CC5)cc4)c2=O)[C@H](C)N(C(=O)c2cc4cc([C@H]5CCOC(C)(C)C5)ccc4n2[C@@]2(c4nc(=O)o[nH]4)C[C@@H]2C)CC3)cc(C)c1F", "pEC50": 8.07}
{"Molecule": "Cc1cc(-n2nc3c(c2-n2ccn(-c4ccc(C(=O)N5CCC5)c(F)c4)c2=O)[C@H](C)N(C(=O)c2cc4cc(C5CCOC(C)(C)C5)ccc4n2[C@@]2(c4nc(=O)o[nH]4)C[C@@H]2C)CC3)cc(C)c1F (stereo partly drawn)", "pEC50": 7.59}
{"Molecule": "Cc1cc(-n2nc3c(c2-n2ccn(-c4ccc(C(=O)N(C)C5CC5)c(C#N)c4)c2=O)[C@H](C)N(C(=O)c2cc4cc([C@H]5CCOC(C)(C)C5)ccc4n2[C@@]2(c4nc(=O)o[nH]4)C[C@@H]2C)CC3)cc(C)c1F", "pEC50": 8.31}
{"Molecule": "Cc1cc(-n2nc3c(c2-n2ccn(-c4ccc5c(c4)C=CS5(=O)=O)c2=O)[C@H](C)N(C(=O)c2cc4cc(C5CCOC(C)(C)C5)ccc4n2[C@@]2(c4noc(=O)[nH]4)C[C@@H]2C)CC3)cc(C)c1F (stereo partly drawn)", "pEC50": 7.87}
{"Molecule": "Cc1cc(-n2nc3c(c2-n2ccn(-c4ccc(N(C)C(=O)C5CC5)c(F)c4)c2=O)[C@H](C)N(C(=O)c2cc4cc([C@@H]5CCOC(C)(C)C5)ccc4n2[C@@]2(c4noc(=O)[nH]4)C[C@@H]2C)CC3)cc(C)c1F [Compound 63a]", "pEC50": 6.84}
{"Molecule": "Cc1cc(-n2nc3c(c2-n2ccn(-c4ccc(N(C)C5CC5)c(C(F)(F)F)c4)c2=O)[C@H](C)N(C(=O)c2cc4cc(C5CCOC(C)(C)C5)ccc4n2[C@@]2(c4nc(=O)o[nH]4)C[C@@H]2C)CC3)cc(C)c1F (stereo partly drawn)", "pEC50": 7.54}
{"Molecule": "Cc1cc(-n2nc3c(c2-n2ccn(-c4ccc5c(c4)C=CS5(=O)=O)c2=O)[C@H](C)N(C(=O)c2cc4cc([C@H]5CCOC(C)(C)C5)ccc4n2[C@@]2(c4noc(=O)[nH]4)C[C@@H]2C)CC3)cc(C)c1F [Compound 62b]", "pEC50": 8.34}
{"Molecule": "Cc1cc(-n2nc3c(c2-n2ccn(-c4cc(F)c(C(=O)N(C)C5CC5)c(Cl)c4F)c2=O)[C@H](C)N(C(=O)c2cc4cc(C5CCOC(C)(C)C5)ccc4n2[C@@]2(c4nc(=O)o[nH]4)C[C@@H]2C)CC3)cc(C)c1F (stereo partly drawn)", "pEC50": 7.79}
